B1: SPDEF (parent)
chain: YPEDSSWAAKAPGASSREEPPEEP

- Variants of: B1
- assay_details: protein stability index of a GFP-peptide fusion (GPS, HEK-293T) (PSI 1-6); higher = more stable;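 note: lentivirally expressed fusions sorted by FACS into six bins by GFP to DsRed ratio, PSI derived from sequencing read proportions per bin multiplied by bin number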
- condition_set: c terminus: a fixed tail appended
// false (0) strictly below 4 in protein stability index; true (1) otherwise

construct_sequence: YPEDSSWAANAPGASSREEPPEEP [K10N]
assigned_label: true (1)

construct_sequence: YPEDSSWAAKAPGASMREEPPEEP [S16M]
assigned_label: true (1)

construct_sequence: YPEDSSWAAKAPGASSREEPPEEN [P24N]
assigned_label: true (1)

construct_sequence: YPEDSSWAAKARGASSREEPPEEP [P12R]
assigned_label: false (0)

construct_sequence: YPEDSSWAAKAPGASSREEPPDEP [E22D]
assigned_label: false (0)

construct_sequence: YKEDSSWAAKAPGASSREEPPEEP [P2K]
assigned_label: true (1)

construct_sequence: YPEDSSWRAKAPGASSREEPPEEP [A8R]
assigned_label: false (0)

construct_sequence: YPEDSSWAAKAPGAKSREEPPEEP [S15K]
assigned_label: false (0)

construct_sequence: YPEDSSWAAKAPGASTREEPPEEP [S16T]
assigned_label: false (0)

construct_sequence: YPEDSFWAAKAPGASSREEPPEEP [S6F]
assigned_label: false (0)

construct_sequence: YPYDSSWAAKAPGASSREEPPEEP [E3Y]
assigned_label: false (0)

construct_sequence: NPEDSSWAAKAPGASSREEPPEEP [Y1N]
assigned_label: true (1)

construct_sequence: YPMDSSWAAKAPGASSREEPPEEP [E3M]
assigned_label: false (0)

construct_sequence: YPEDSSWAAKAPGASSREHPPEEP [E19H]
assigned_label: false (0)

construct_sequence: YPEDSSWAAKAPGASSREERPEEP [P20R]
assigned_label: false (0)

construct_sequence: YPEDSSWAAKNPGASSREEPPEEP [A11N]
assigned_label: true (1)

construct_sequence: YPEDSSWAAKAPGDSSREEPPEEP [A14D]
assigned_label: true (1)

construct_sequence: YPEDSWWAAKAPGASSREEPPEEP [S6W]
assigned_label: false (0)

construct_sequence: YPEDSSWAAKAPGASSRENPPEEP [E19N]
assigned_label: true (1)

Reference source for all entries: the supplement of paper PMC10567573
